Attribution: patent US20240400616A1

# TARGET OR TEST SYSTEM: T1, human Nectin-4 (protein used in the fluorescence polarisation direct and competition binding assays) (human, UniProt Q96NY8 32-349)
# T1 construct: It may be the Gly32-Ser349 FLAG construct described for SPR
# T1 sequence (looked up): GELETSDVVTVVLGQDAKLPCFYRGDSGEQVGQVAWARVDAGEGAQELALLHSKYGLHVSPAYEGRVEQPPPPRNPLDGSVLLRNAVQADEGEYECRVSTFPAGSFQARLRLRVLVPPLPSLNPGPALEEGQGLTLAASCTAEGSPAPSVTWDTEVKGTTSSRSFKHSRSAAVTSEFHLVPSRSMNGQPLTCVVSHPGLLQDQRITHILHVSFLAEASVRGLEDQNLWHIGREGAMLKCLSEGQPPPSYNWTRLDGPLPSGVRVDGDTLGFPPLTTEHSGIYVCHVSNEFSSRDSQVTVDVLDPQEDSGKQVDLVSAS
# PROCEDURE SUMMARY: fluorescence polarisation competition; competitor: fluorescent tracer SEQ ID NO: 2; 6 experiments
pKi: −log10 of the molar value.
PARAMETER: pKi

{"BINDER": "CPADCMRDWSTPPWC (N-terminal acetyl; core as printed Ci-P1-[1Nal]2-[dD]3-Cii-M4-[HArg]5-D6-W7-S8-T9-P10-[HyP]11-W12-Ciii (1Nal = 1-naphthylalanine, dD = D-Asp, HArg = homoarginine, HyP = hydroxyproline); Ci, Cii and Ciii covalently bound to the TATA scaffold, Bicyclic peptide) [BCY8126: Ac-(SEQ ID NO: 1), cyclised with TATA]", "RESULT NUMBER": 8.57}
